assay: NCI Yeast Anticancer Drug Screen. Data for the mlh1 rad18 strain (AID 175); conditions: S. cerevisiae mlh1 rad18 strain growth inhibition; at 50.0 µM; stronger effect = higher value
This is part of a sample that, as a whole, favours compounds with a hit. Of some 79,000 tested, about 15% had one in any assay. Where a SMILES comes first, the peptide text is derived from it. [ ]: non-standard residue; d: D form. The star is where a group is joined. Phe(4-NO2) = N[CH](Cc1ccc([N+](=O)[O-])cc1)C(=O)O; Boc = CC(C)(C)OC(=O)*; OtBu = CC(C)(C)O*
outcome measure: growth inhibition (%)
Give bare numbers, in %.

// solved cases for growth inhibition follow
Cc1cc(=O)n2c(n1)Nc1ccccc1C2; 6.8
O=C(CC(c1ccccc1)C(Br)(c1ccccc1)[N+](=O)[O-])c1ccccc1 (centres undefined); -5.8
CCOC(=O)C1(C)CCCCC1=O (centres undefined); 2.95
O=C(Nc1ccc(Cl)cc1)Nc1nnc(-c2cc([N+](=O)[O-])cc([N+](=O)[O-])c2)o1; -2.25
CCCC(=O)OCCc1ccccc1; -26

Please give growth inhibition for each item listed below.
1. CC(=O)Nc1ccc(Br)cc1
2. CCCCCCCCCCCCCCCCC1Cc2ccccc2C1
3. CO/C(N)=C(\C#N)N=Cc1ccco1

1. 0.1
2. -7.6
3. 9.3

For every item in the list below, what is its measured growth inhibition?
1. Nc1ccc(F)c([N+](=O)[O-])c1
2. Cc1cc(=O)[nH]c(NNC(C#N)c2ccccc2O)n1 (centres undefined)
3. CCCCCC(=O)/C=C/CC(CCCCCCC#N)C(CC(OC)OC)[N+](=O)[O-] (centres undefined)
4. CC1(C)OC2C(CO)OC(n3cnc4c(=S)nc(N)[nH]c43)C2O1 (centres undefined)

1: -1.2; 2: -34.8; 3: -37.4; 4: 21.7

# return growth inhibition for each item in the list
1. CC(=O)NC(CCC(=O)OC(C)(C)C)C(=O)NC(CCC(=O)OC(C)(C)C)C(=O)NC(Cc1ccc([N+](=O)[O-])cc1)C(=O)NC(CCCCNC(=O)OC(C)(C)C)C(=O)NC(CCCCNC(=O)OC(C)(C)C)C(=O)NCC(=O)O (centres undefined) (Ac-E(OtBu)E(OtBu)[Phe(4-NO2)]K(Boc)K(Boc)G-OH; configuration not given here)
2. O=C(c1ccc(Cl)cc1)C(c1ccccc1)N1CCCCC1 (centres undefined)

1: -27.3; 2: 6.85
